Parameter: Selectivity index SIA, Du-145. Scope: all listed entries.
Test system: DU 145 human prostate cancer cell line
Assay: SRB antiproliferative assay, DU 145
Type: cell-based
Details: IC50 HLMEC / IC50 Du-145
I only need the number, thanks.

Look over these answered cases.
>  <molecule>
O=C1C[C@@H](c2ccc(O)cc2)Oc2cc(O)cc(O)c21 [NG, Naringenin, reference compound]

>  <target.under.test>
DU 145 human prostate cancer cell line

>  <Selectivity index SIA, Du-145>
0.88

$$$$
>  <molecule>
CC(C)=CCc1c(O)cc2c(c1O)C(=O)CC(c1ccc(O)cc1)O2 (centres unmarked) [6PN]

>  <target.under.test>
DU 145 human prostate cancer cell line

>  <Selectivity index SIA, Du-145>
0.17

$$$$
>  <molecule>
COc1cc(O)c(CC=C(C)C)c(O)c1C(=O)CCc1ccc(O)cc1 [2HXN]

>  <target.under.test>
DU 145 human prostate cancer cell line

>  <Selectivity index SIA, Du-145>
1.09

$$$$
>  <molecule>
COc1cc(O)c(CC=C(C)C)c(O)c1C(=O)/C=C/c1ccc(O)cc1 [XN]

>  <target.under.test>
DU 145 human prostate cancer cell line

>  <Selectivity index SIA, Du-145>
1.47

$$$$

Now for another entry.
// recorded Selectivity index SIA, Du-145 for CC(C)=CCc1c(O)cc(O)c2c1OC(c1ccc(O)cc1)CC2=O (centres unmarked) [8PN] : 0.39
